Tested on: OVCAR-3 ovarian
ASSAY PROCEDURE: NCI tumour cell line growth inhibition, 48 h
READOUT NAME: TGI

Known TGI results, listed for orientation:
Requested read-out: TGI. Entry: "Nc1cc2ccccc2c(O)c1O" 3.52 µM

Requested read-out: TGI. Entry: O=C1CC2(CCC(O)(c3ccco3)C(C(=O)c3ccco3)C2)C(=O)c2ccccc2N1 (centres undefined) > 100 µM

More entries:
Requested read-out: TGI. Entry: COC(=O)C1C(O)C(C)C(O)C(C)(O)/C=C/C=C(C)C(=O)Nc2c(C)c(OC(C)=O)c3c(c2O)C(=O)C(C)=C2OCOC(=C23)C(C)=CC(C)(O)C(O)C(C)C1OC(C)=O (centres undefined) 63.1 µM
